target: Dimer of Gag-Pol polyprotein [489-587] (Human immunodeficiency virus 1); construct: 489-587; assay: Protease Inhibition Assay; conditions: pH 5.5; 37 °C
quantity name: Ki

[[record]]
compound_structure = "CC(=O)c1cccc(CN2C(=O)N(Cc3cccc(C(C)=O)c3)[C@H](Cc3ccc4c(c3)N(C)CCO4)[C@H](O)[C@@H](O)[C@H]2Cc2ccc3c(c2)N(C)CCO3)c1"
quantity_name = "Ki"
result = "0.08 nM"

[[record]]
compound_structure = "COc1cc(C[C@@H]2[C@H](O)[C@@H](O)[C@@H](Cc3cc(OC)cc(OC)c3)N(Cc3cccc(C(C)=O)c3)C(=O)N2Cc2cccc(C(C)=O)c2)cc(OC)c1"
quantity_name = "Ki"
result = "0.4 nM"

[[record]]
compound_structure = "CC(=O)c1cc(CN2C(=O)N(Cc3ccc(F)c(C(C)=O)c3)[C@H](Cc3ccc4c(c3)OCO4)[C@H](O)[C@@H](O)[C@H]2Cc2ccc3c(c2)OCO3)ccc1F"
quantity_name = "Ki"
result = "1.5 nM"

[[record]]
compound_structure = "CC(=O)c1cccc(CN2C(=O)N(Cc3cccc(C(C)=O)c3)[C@H](Cc3ccc4c(c3)OCO4)[C@H](O)[C@@H](O)[C@H]2Cc2ccc3c(c2)OCO3)c1"
quantity_name = "Ki"
result = "0.043 nM"

